System: HEK-293T
Test Name: Multiplex assay against HEK293T
Format: toxicity, cell-based
Settings: human, 24 h, 1 µM, compound concentration 1 uM, replicate 2
I'd be grateful if you could share measured Population Pyknosed Nuclei (%) for these entries.
One number for each entry, in %.

{"columns": ["Compound", "Assay Target", "Units Label", "Population Pyknosed Nuclei (%)"],
 "data": [
  ["Cl.Cl.Nc1ncnc2c1c(-c1cccc(OCc3ccccc3)c1)cn2[C@H]1C[C@@H](CN2CCC2)C1", "HEK-293T", "%", 49],
  ["c1ccc2oc(-c3csc(C4CCN(Cc5nc6ncccc6[nH]5)CC4)n3)cc2c1", "HEK-293T", "%", 7],
  ["CNC(=O)c1nn(C)c2c1C(C)(C)Cc1cnc(Nc3ccc(N4CCN(C)CC4)cc3)nc1-2", "HEK-293T", "%", 14],
  ["O=C(O)c1ccc2cc(-c3ccc(O)c(C45CC6CC(CC(C6)C4)C5)c3)ccc2c1", "HEK-293T", "%", 18],
  ["CCOc1cc(N2CCC(O)CC2)ccc1Nc1ncc2c(n1)N(C1CCCC1)CCC(=O)N2C", "HEK-293T", "%", 1],
  ["CCCn1c(=O)c2[nH]c(C34CC5CC(CC3C5)C4)nc2n(CCC)c1=O", "HEK-293T", "%", 36],
  ["CCn1c(-c2nonc2N)nc2cnc(Oc3cccc(NC(=O)c4ccc(OCCN5CCOCC5)cc4)c3)cc21 [GSK-269962A]", "HEK-293T", "%", 26],
  ["CC(=O)O[C@H]1C(=O)[C@@]2(C)[C@H]([C@H](OC(=O)c3ccccc3)[C@]3(O)C[C@H](OC(=O)[C@H](O)[C@@H](NC(=O)c4ccccc4)c4ccccc4)C(C)=C1C3(C)C)[C@]1(OC(C)=O)CO[C@@H]1C[C@@H]2O", "HEK-293T", "%", 1],
  ["Cl.Cl.NC1(c2ccc(-c3nc4ccn5c(=O)[nH]nc5c4cc3-c3ccccc3)cc2)CCC1", "HEK-293T", "%", 3],
  ["CCC(=O)O[C@]1(C(=O)SCF)[C@H](C)C[C@H]2[C@@H]3C[C@H](F)C4=CC(=O)C=C[C@]4(C)[C@@]3(F)[C@@H](O)C[C@@]21C [FLUTICASONE PROPIONATE]", "HEK-293T", "%", 29]
]}

# batch size: 5; output Population Pyknosed Nuclei (%) per entry
1. Cc1cn(-c2cc(NC(=O)c3ccc4c(c3)CN(c3cncnc3)C[C@@H]4C)cc(C(F)(F)F)c2)cn1
2. CC(=O)c1cc(-c2cc(C(=O)NC3CC3)ccc2C)c2ncccn12
3. COc1ccc(NS(=O)(=O)c2sc3ccc(Cl)cc3c2C)cc1N1CCNCC1.Cl
4. Nc1nc2c(c(N3CCNCC3)n1)CCC1=C2[C@@H]2CCCC[C@@H]2O1
5. CN(C)CCOc1ccc(-c2nc(-c3ccncc3)c(-c3ccc4c(c3)CC/C4=N\O)[nH]2)cc1

Reply:
1: 2; 2: 29; 3: 36; 4: 32; 5: 6

Recorded values, source ChEMBL document CHEMBL4689842.
